SYSTEM_UNDER_TEST: ATP-dependent translocase ABCB1 (Homo sapiens, UniProt P08183)
Sequence (P08183 whole entry): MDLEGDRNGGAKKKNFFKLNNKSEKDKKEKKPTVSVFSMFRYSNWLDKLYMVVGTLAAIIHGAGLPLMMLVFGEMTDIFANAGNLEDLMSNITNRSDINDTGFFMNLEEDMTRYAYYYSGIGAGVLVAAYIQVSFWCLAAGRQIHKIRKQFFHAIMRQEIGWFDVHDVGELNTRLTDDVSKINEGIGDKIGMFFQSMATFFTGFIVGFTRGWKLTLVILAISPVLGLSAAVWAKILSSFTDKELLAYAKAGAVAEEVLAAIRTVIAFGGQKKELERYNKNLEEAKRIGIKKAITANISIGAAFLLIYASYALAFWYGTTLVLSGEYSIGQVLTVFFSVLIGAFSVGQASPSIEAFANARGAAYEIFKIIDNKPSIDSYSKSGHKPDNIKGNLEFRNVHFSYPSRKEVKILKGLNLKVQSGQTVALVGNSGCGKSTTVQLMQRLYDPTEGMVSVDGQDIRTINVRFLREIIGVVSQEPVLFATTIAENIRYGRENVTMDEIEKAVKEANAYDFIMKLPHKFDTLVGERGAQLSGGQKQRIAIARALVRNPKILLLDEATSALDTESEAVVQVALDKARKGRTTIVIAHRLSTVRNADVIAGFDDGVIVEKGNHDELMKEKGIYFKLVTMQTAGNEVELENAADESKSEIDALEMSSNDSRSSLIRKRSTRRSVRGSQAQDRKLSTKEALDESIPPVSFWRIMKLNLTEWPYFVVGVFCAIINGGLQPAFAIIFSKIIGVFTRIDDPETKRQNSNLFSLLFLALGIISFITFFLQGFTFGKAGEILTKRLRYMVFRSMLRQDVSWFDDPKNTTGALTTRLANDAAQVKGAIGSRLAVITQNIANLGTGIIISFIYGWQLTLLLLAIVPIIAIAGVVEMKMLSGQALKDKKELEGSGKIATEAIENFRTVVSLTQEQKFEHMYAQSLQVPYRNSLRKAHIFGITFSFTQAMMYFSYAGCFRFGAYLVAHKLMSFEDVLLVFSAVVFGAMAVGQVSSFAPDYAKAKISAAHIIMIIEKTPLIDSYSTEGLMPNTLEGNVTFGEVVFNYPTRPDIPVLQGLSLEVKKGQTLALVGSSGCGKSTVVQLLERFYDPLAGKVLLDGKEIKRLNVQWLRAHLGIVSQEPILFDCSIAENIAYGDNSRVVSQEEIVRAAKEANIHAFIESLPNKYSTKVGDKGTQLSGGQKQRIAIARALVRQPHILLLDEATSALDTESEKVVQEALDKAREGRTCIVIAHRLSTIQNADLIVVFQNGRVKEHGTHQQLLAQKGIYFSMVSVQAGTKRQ
METHOD_DESCRIPTION: Reversal of human MDR1-mediated rhodamine 123 uptake in mouse L5178Y cells assessed as fluorescence activity ratio at 10 mM by flow cytometry relative to non p-gp expressing parental cell line
Type: cell-based
RUN_CONDITIONS: in the assay text read “10 µM” for “10 mM”
PROPERTY_MEASURED: Ratio

molecule=COC(=O)c1c(-c2ccc(C)cc2)ccn(Cc2ccccc2)c1=O recorded_value=1.75

A. COC(=O)c1c(-c2ccccc2)ccn(Cc2ccccc2)c1=O
B. COc1ccc(CCN(C)CCCC(C#N)(c2ccc(OC)c(OC)c2)C(C)C)cc1OC (stereo not drawn)
// query Thinking about recorded Ratio values, which is higher, A or B ? Let me know the label of the one you choose.
// result B
(B: 2.94, A: 1.74)
